FYI, the data here is from ChEMBL document CHEMBL1128285.

Kindly state pKi for each of the entries shown.
pKi is a log-scale quantity: -log10 of the concentration expressed in molar.

Input: Form entry - test system: Adenosine receptor A1 (Rattus norvegicus, UniProt P25099); read-out: pKi; compound: OC[C@H]1O[C@@H](n2cnc3c(NCc4ccco4)ncnc32)[C@H](O)[C@@H]1O [KINETIN RIBOSIDE]
Output: 6.63

Input: Form entry - test system: Adenosine receptor A1 (Rattus norvegicus, UniProt P25099); read-out: pKi; compound: C[C@@]1(O)[C@@H](CO)O[C@@H](n2cnc3c(N)ncnc32)[C@@H]1O
Output: 4.29

Input: Form entry - test system: Adenosine receptor A1 (Rattus norvegicus, UniProt P25099); read-out: pKi; compound: Nc1nc(F)nc2c1ncn2[C@@H]1O[C@H](CO)[C@@H](O)[C@@H]1O [FLUDARABINE]
Output: 8.23

====

Molecular target: Adenosine receptor A1 (Rattus norvegicus)
Sequence (whole entry): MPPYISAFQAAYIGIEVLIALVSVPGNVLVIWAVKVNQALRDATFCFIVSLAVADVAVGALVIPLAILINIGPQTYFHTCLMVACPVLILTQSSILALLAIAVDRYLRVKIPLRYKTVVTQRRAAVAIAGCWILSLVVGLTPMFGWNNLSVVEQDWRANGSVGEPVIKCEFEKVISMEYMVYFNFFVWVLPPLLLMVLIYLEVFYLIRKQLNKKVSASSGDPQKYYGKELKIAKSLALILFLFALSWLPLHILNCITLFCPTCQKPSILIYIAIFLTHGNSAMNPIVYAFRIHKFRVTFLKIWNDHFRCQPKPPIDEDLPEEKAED
Experiment: Binding affinity determined on Adenosine A1 receptor in rat brain membranes by measuring displacement of specific [3H]PIA as radioligand.
Format: cell membranes
Set-up: concentration or dose not given beside the values
measurement.name: Displacement
The reply must contain the numeric value and, after it, the unit.

Input: Any idea what its Displacement is? The compound is CC1CC(n2cnc3c(N)ncnc32)C(O)C1O (stereo unspecified)
Output: 12%

Input: Any idea what its Displacement is? The compound is CCCCc1ccc(Nc2nc(N)c3ccn(C4CC(CO)C(O)C4O)c3n2)cc1 (stereo unspecified)
Output: 29%

Input: Any idea what its Displacement is? The compound is Nc1ncnc2c1ncn2[C@@H]1O[C@H](CO)[C@@H](O)[C@@H]1O
Output: 20%

Input: Any idea what its Displacement is? The compound is Nc1nc(N)c2ncn([C@@H]3CCC[C@H]3O)c2n1
Output: 30%

Input: Any idea what its Displacement is? The compound is Nc1ncnc2c1nc(Br)n2[C@@H]1O[C@H](CO)[C@@H](O)[C@H]1O
Output: 41%

Input: Any idea what its Displacement is? The compound is C[C@]1(CO)OC(n2cnc3c(N)ncnc32)[C@H](O)[C@@H]1O (stereo partly specified)
Output: 3%

====

Target: UniProt:P28647
Sequence (whole entry): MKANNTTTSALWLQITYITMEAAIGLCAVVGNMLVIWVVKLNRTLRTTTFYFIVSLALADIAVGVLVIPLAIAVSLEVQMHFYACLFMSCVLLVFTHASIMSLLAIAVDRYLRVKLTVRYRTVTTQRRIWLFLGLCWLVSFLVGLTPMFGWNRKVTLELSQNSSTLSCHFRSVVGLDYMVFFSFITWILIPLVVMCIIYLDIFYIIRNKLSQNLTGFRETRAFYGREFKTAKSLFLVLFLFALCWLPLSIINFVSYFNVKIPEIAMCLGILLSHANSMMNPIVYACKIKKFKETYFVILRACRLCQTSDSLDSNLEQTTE
Type: cell membranes
Parameters: concentration or dose not given beside the values
Conditions: CHO
measurement.name: Displacement
The reply must contain the numeric value and, after it, the unit.

Input: Any idea what its Displacement is? The compound is Nc1nc(Cl)nc2c1ncn2C1CC(O)C(CO)S1 (stereo not given)
Output: 32%

Input: Any idea what its Displacement is? The compound is Nc1ncnc2c1ncn2[C@@H]1O[C@H](CO)[C@@H](O)[C@H]1O
Output: 10%

Input: Any idea what its Displacement is? The compound is Nc1nccc2c1ncn2C1CC(O)C(O)C1O (stereo not given)
Output: 20%

Input: Any idea what its Displacement is? The compound is Nc1ncnc2c1ncn2[C@H]1C[C@@H](O)[C@H](O)[C@@H]1O
Output: 24%

Input: Any idea what its Displacement is? The compound is Nc1ncnc2c1ccn2[C@H]1C[C@@H](O)[C@H](O)[C@@H]1O
Output: 19%

Input: Any idea what its Displacement is? The compound is CO[C@@H]1[C@H](O)[C@@H](CO)O[C@H]1n1cnc2c(N)ncnc21
Output: 43%

Input: Any idea what its Displacement is? The compound is Nc1ncnc2c1nc(Br)n2[C@@H]1O[C@H](CO)[C@@H](O)[C@H]1O
Output: 31%

Input: Any idea what its Displacement is? The compound is CC1CC(n2cnc3c(N)ncnc32)C(O)C1O (stereo not given)
Output: 66%

Input: Any idea what its Displacement is? The compound is OC[C@H]1O[C@@H](n2cnc3c(NO)ccnc32)[C@H](O)[C@@H]1O
Output: 56%

Input: Any idea what its Displacement is? The compound is Nc1ncnc2c1ccn2[C@@H]1O[C@H](CO)[C@@H](O)[C@H]1O
Output: 39%

Input: Any idea what its Displacement is? The compound is Nc1ncnc2c1ncn2[C@@H]1C[C@H](O)[C@@H](O)[C@H]1O
Output: 68%

Input: Any idea what its Displacement is? The compound is Nc1ncnc2c1ncn2[C@H]1C[C@H](O)[C@@H](CO)O1
Output: 28%

Input: Any idea what its Displacement is? The compound is Nc1cc(Cl)nc2c1ncn2[C@H]1C[C@H](O)[C@@H](CO)O1
Output: 21%

Input: Any idea what its Displacement is? The compound is Nc1cc(Cl)nc2c1ncn2C1CCC(CO)O1 (stereo not given)
Output: 16%

Input: Any idea what its Displacement is? The compound is CO[C@H]1[C@@H](O)[C@H](n2cnc3c(N)ncnc32)O[C@@H]1CO
Output: 11%
